test system: HEK-293T; test: Cytotoxicity against human HEK293T cells assessed as reduction in cell viability; format: cell-based

CPD SMILES: CC12CN(Cc3ccccc3)CC(C)(CN(Cc3ccccc3)C1)C2=O
QUALIFIER SIGN: =
IC50 (µM): 359
//
CPD SMILES: Cn1nc(C(=O)N2CC3(C)CN(C(=O)c4cc(-c5ccccc5)n(C)n4)CC(C)(C2)C3=O)cc1-c1ccccc1
QUALIFIER SIGN: >
IC50 (µM): 900
//
CPD SMILES: CC12CN(C(=O)c3cc(-c4ccccc4)n(-c4ccccc4)n3)CC(C)(CN(C(=O)c3cc(-c4ccccc4)n(-c4ccccc4)n3)C1)C2=O
QUALIFIER SIGN: >
IC50 (µM): 700
//
CPD SMILES: CC12CN(C(=O)/C=C/c3ccccc3)CC(C)(CN(C(=O)/C=C/c3ccccc3)C1)C2
QUALIFIER SIGN: =
IC50 (µM): 253
//
CPD SMILES: Cn1nc(C(=O)N2CC3(C)CN(C(=O)c4nn(C)c5c4Cc4ccccc4-5)CC(C)(C2)C3=O)c2c1-c1ccccc1C2
QUALIFIER SIGN: >
IC50 (µM): 800
//
CPD SMILES: CC(=O)N1CC2(C)CN(C(C)=O)CC(C)(C1)C2=O
QUALIFIER SIGN: >
IC50 (µM): 1000
//
CPD SMILES: C=CC(=O)N1CC2(C)CN(C(=O)C=C)CC(C)(C1)C2
QUALIFIER SIGN: >
IC50 (µM): 1000
//
CPD SMILES: C#CC(=O)N1CC2(C)CN(C(=O)C#C)CC(C)(C1)C2=O
QUALIFIER SIGN: =
IC50 (µM): 57.3
//
CPD SMILES: Cn1nc(C(=O)N2CC3(C)CN(C(=O)c4cc(-c5cccs5)n(C)n4)CC(C)(C2)C3=O)cc1-c1cccs1
QUALIFIER SIGN: =
IC50 (µM): 456

###

As shown below, each of these compounds has a reported IC50 value.
system: HEK-293T; assay: Cytotoxicity against human HEK293T cells assessed as reduction in cell viability; format: cell-based

CPD SMILES: CC12CN(C(=O)c3ccccc3)CC(C)(CN(C(=O)c3ccccc3)C1)C2=O
IC50: 692 µM
--
CPD SMILES: CCOC(=O)c1n[nH]cc1-n1cc(CN2CC3(C)CN(Cc4cn(-c5c[nH]nc5C(=O)OCC)nn4)CC(C)(C2)C3=O)nn1
IC50: > 700 µM
--
CPD SMILES: CC(C)(C)OC(=O)NCCn1cc(CN2CC3(C)CN(Cc4cn(CCNC(=O)OC(C)(C)C)nn4)CC(C)(C2)C3=O)nn1
IC50: 410 µM
--
CPD SMILES: C#CCN1CC2(C)CN(CC#C)CC(C)(C1)C2=O
IC50: > 1000 µM
--
CPD SMILES: Cn1nc(C(=O)N2CC3(C)CN(C(=O)c4nn(C)c5c4CCc4ccccc4-5)CC(C)(C2)C3=O)c2c1-c1ccccc1CC2
IC50: > 800 µM
--
CPD SMILES: CC12CN(CC(=O)O)CC(C)(CN(CC(=O)O)C1)C2=O
IC50: > 1000 µM
--
CPD SMILES: CC12CNCC(C)(CNC1)C2=O
IC50: > 1000 µM
--
CPD SMILES: CC12CN(CCN(CC(=O)O)CC(=O)O)CC(C)(CN(CCN(C(=O)O)C(=O)O)C1)C2=O
IC50: 257 µM
--
CPD SMILES: CC(C)(C)OC(=O)N1CC2(C)CN(C(=O)OC(C)(C)C)CC(C)(C1)C2=O
IC50: > 1000 µM
